Reference source: patent US20250179059A1

# IC50 listing for each entry below
- Assayed System: human BRD4 bromodomain II (Homo sapiens, UniProt O60885)
- Construct: human BRD4 bromodomain II [based on Genbank NM_058243, residues 349-460]; host or cells: E. coli
- Protocol Notes: Bromodomain binding assay (AlphaScreen), BRD4 BDII
- Particulars: AlphaScreen assay, Table C2; read-out: BRD4 BDII IC50

Worked examples, 3 molecules total:
Molecule: Cn1ccn(-c2ccc(-c3cc(F)cc(-c4ccc(=O)n(C5CCNCC5)c4)c3O)cc2Cl)c1=O
Observation Type: IC50
Recorded Measurement: 1 to 10 nM
//
Molecule: CC(=O)Nc1ccc(-c2cccc(-c3ccnc(N4CC[C@H](O)C4)c3)c2O)cc1F
Observation Type: IC50
Recorded Measurement: 1 to 10 nM
//
Molecule: CN1CCN(c2ccc(-c3cc(F)cc(-c4cnc(OC5CCC(O)CC5)c(N5CCNCC5)c4)c3O)cc2Cl)C1=O (stereo not shown)
Observation Type: IC50
Recorded Measurement: 0.01 to 1 nM

Kindly review the next molecule as well.
**Query** I would be grateful if you could share the reported IC50 for CC(=O)Nc1ccc(-c2cccc(-c3cc(NCCO)nc(N4CCNCC4)c3)c2O)cc1F .
**Result** 1 to 10 nM

###

# GI50 listing for each entry below
- Test system: human SKM-1 acute myeloid leukemia cells
- Protocol Notes: SKM-1 antiproliferation cell-based assay (ATPlite)
- Particulars: Homo sapiens, SKM-1, 96 h, SKM-1 antiproliferation assay, 4 days, Table C2

Smiles Text: COc1cc(-c2ccnc(N3CCNCC3)c2)c(O)c(-c2ccc(N3CCN(C)C3=O)c(Cl)c2)c1
Assayed System: human SKM-1 acute myeloid leukemia cells
GI50: 0.03 to 0.3 µM

Smiles Text: Cn1ccn(-c2ccc(-c3cc(F)cc(-c4cc(N5CC[C@@](C)(O)C5)n(C)c(=O)c4)c3O)cc2Cl)c1=O
Assayed System: human SKM-1 acute myeloid leukemia cells
GI50: 0.0003 to 0.03 µM

Smiles Text: Cc1ccc(-c2cc(F)cc(-c3ccc(-n4ccn(C)c4=O)c(Cl)c3)c2O)cc1N1CC(O)(CO)C1
Assayed System: human SKM-1 acute myeloid leukemia cells
GI50: 0.03 to 0.3 µM

**Query** I would be grateful if you could share the reported GI50 for CC(=O)Nc1ccc(-c2cccc(-c3cccc(N4CCNC(=O)C4)c3)c2O)cc1F .
**Result** ≥ 3 µM

**Query** I would be grateful if you could share the reported GI50 for Cn1ccn(-c2ccc(-c3cc(F)cc(-c4cccc(C#CC(C)(C)N)c4)c3O)cc2Cl)c1=O .
**Result** 0.03 to 0.3 µM

**Query** I would be grateful if you could share the reported GI50 for CC(C)N1C2CCC1CN(c1cccc(-c3cc(F)cc(-c4ccc(-n5ccn(C)c5=O)c(Cl)c4)c3O)c1)C2 .
**Result** 0.0003 to 0.03 µM

**Query** I would be grateful if you could share the reported GI50 for Cn1ccn(-c2ccc(-c3cc(F)cc(-c4ccnc(N5CC6(CC6)[C@](C)(O)C5)c4)c3O)cc2Cl)c1=O .
**Result** 0.0003 to 0.03 µM

###

# pIC50 listing for each entry below
- Assayed System: human BRD4 bromodomain II (Homo sapiens)
- Construct: human BRD4 bromodomain II [based on Genbank NM_058243, residues 349-460]; host or cells: E. coli
- Protocol Notes: Bromodomain binding assay (AlphaScreen), BRD4 BDII
- Particulars: AlphaScreen assay, Table C2; read-out: BRD4 BDII IC50
pIC50: −log10 of the molar value.

Worked examples, 5 molecules total:
Molecule: C[C@@H]1CN(c2cc(-c3cc(F)cc(-c4ccc(-n5ccn(C)c5=O)c(Cl)c4)c3O)ccn2)C[C@@H](C)O1
Assayed System: human BRD4 bromodomain II (Homo sapiens)
pIC50: 8.00 to 9.00
//
Molecule: CC(=O)Nc1ccc(-c2cc(F)cc(-c3cccc(N4CCNCC4)c3)c2O)cc1F
Assayed System: human BRD4 bromodomain II (Homo sapiens)
pIC50: 8.00 to 9.00
//
Molecule: CC(=O)Nc1ccc(-c2cccc(-c3cc(N4CCN(C(C)C)CC4)no3)c2O)cc1F [Example 152, 2,2,2-trifluoroacetate]
Assayed System: human BRD4 bromodomain II (Homo sapiens)
pIC50: 7.00 to 8.00
//
Molecule: CN1CCN(c2ccc(-c3cc(F)cc(-c4cnc(N5CCOCC5)c(N5CCNCC5)c4)c3O)cc2Cl)C1=O
Assayed System: human BRD4 bromodomain II (Homo sapiens)
pIC50: 8.00 to 9.00
//
Molecule: O=C1CCCN1c1ccc(-c2cccc(-c3ccncc3)c2O)cc1Cl [Example 213, 2,2,2-trifluoroacetate]
Assayed System: human BRD4 bromodomain II (Homo sapiens)
pIC50: 7.00 to 8.00

**Query** I would be grateful if you could share the reported pIC50 for Cn1cc(-c2cc(F)cc(-c3ccc(-n4ccn(C)c4=O)c(Cl)c3)c2O)cc(N2CCC[C@H](N)C2)c1=O .
**Result** 9.00 to 11.00

**Query** I would be grateful if you could share the reported pIC50 for C[C@@H]1CN(c2cccc(-c3cc(F)cc(-c4ccc(-n5ccn(C)c5=O)c(Cl)c4)c3O)c2)CCN1 .
**Result** 9.00 to 11.00

**Query** I would be grateful if you could share the reported pIC50 for O=C1CCCCN1c1ccc(-c2cc(F)cc(-c3ccnc(N4CCNCC4)c3)c2O)cc1Cl .
**Result** 7.00 to 8.00

**Query** I would be grateful if you could share the reported pIC50 for C[C@@H]1CN(c2cc(-c3cc(F)cc(-c4ccc(-n5ccn(C)c5=O)c(Cl)c4)c3O)cn3ccnc23)CCN1 .
**Result** 9.00 to 11.00

**Query** I would be grateful if you could share the reported pIC50 for CCc1ncc(-c2cc(F)cc(-c3ccc(-n4ccn(C)c4=O)c(Cl)c3)c2O)cc1N1CCN(C(C)C)CC1 .
**Result** 9.00 to 11.00
